Reference source: ChEMBL document CHEMBL5390255

# Test: Octanol/water partition coefficient log P of the compound
# Format: physicochemical
Recorded measurements of logP, one per entry

>  <Smiles Notation>
O=c1c(NCc2ccccn2)c(-c2ccc(N3CCSCC3)cc2)c1=O

>  <logP>
2.8

$$$$
>  <Smiles Notation>
O=c1c(NCc2ccccn2)c(-c2ccc(C3CCNCC3)cc2)c1=O

>  <logP>
2.44

$$$$
>  <Smiles Notation>
O=c1c(NCc2ccccn2)c(-c2ccc(N3CCNCC3)cc2)c1=O

>  <logP>
1.91

$$$$
>  <Smiles Notation>
O=c1c(NCc2ccccn2)c(N2CCOCC2)c1=O

>  <logP>
0.11

$$$$

====

# Test: Octanol/water partition coefficient log P of the compound
# Type: physicochemical
Each entry gets no (0) if its logP stays under 2, and yes (1) if its logP is 2 or above.

>  <Smiles Notation>
O=c1c(NCc2ccccn2)c(N2CCC(c3ccccc3)CC2)c1=O

>  <Group>
yes (1)

$$$$
>  <Smiles Notation>
COc1ccc(-c2c(NCc3ccccn3)c(=O)c2=O)cc1

>  <Group>
yes (1)

$$$$
>  <Smiles Notation>
O=c1c(NCc2ccccn2)c(Nc2cc(C3CC3)n[nH]2)c1=O

>  <Group>
no (0)

$$$$
>  <Smiles Notation>
O=c1c(NCc2ccccn2)c(-c2ccc(F)cc2)c1=O

>  <Group>
yes (1)

$$$$
>  <Smiles Notation>
C#CCNc1c(NCc2ccccn2)c(=O)c1=O

>  <Group>
no (0)

$$$$
>  <Smiles Notation>
Cc1ccc2oc(Nc3c(NCc4ccccn4)c(=O)c3=O)nc2c1

>  <Group>
yes (1)

$$$$
>  <Smiles Notation>
O=c1c(NCc2ccccn2)c(-c2ccc(N3CCCCC3)cc2)c1=O

>  <Group>
yes (1)

$$$$
>  <Smiles Notation>
O=c1c(NCc2ccccn2)c(Nc2nc3cc(Cl)ccc3o2)c1=O

>  <Group>
yes (1)

$$$$
>  <Smiles Notation>
O=c1c(NCc2ccccn2)c(N2CCCCC2)c1=O

>  <Group>
no (0)

$$$$
>  <Smiles Notation>
O=c1c(NCc2ccccn2)c(Nc2nc3ccc([N+](=O)[O-])cc3o2)c1=O

>  <Group>
no (0)

$$$$
>  <Smiles Notation>
O=c1c(NCc2ccccn2)c(N2CCNCC2)c1=O

>  <Group>
no (0)

$$$$
>  <Smiles Notation>
O=c1c(NCc2ccccn2)c(NC2CCCCC2)c1=O

>  <Group>
no (0)

$$$$
>  <Smiles Notation>
CCCNc1c(NCc2ccccn2)c(=O)c1=O

>  <Group>
no (0)

$$$$
>  <Smiles Notation>
O=c1c(NCCCBr)c(NCc2ccccn2)c1=O

>  <Group>
no (0)

$$$$
>  <Smiles Notation>
O=c1c(NCc2ccccn2)c(NC2CCCCCCC2)c1=O

>  <Group>
yes (1)

$$$$
>  <Smiles Notation>
O=c1c(NCc2ccccn2)c(Nc2ccccc2)c1=O

>  <Group>
no (0)

$$$$
>  <Smiles Notation>
O=c1c(NCc2ccccn2)c(Nc2nc3ccc(Cl)cc3o2)c1=O

>  <Group>
yes (1)

$$$$
>  <Smiles Notation>
O=c1c(NCc2ccccn2)c(-c2ccc(C3CCCCC3)cc2)c1=O

>  <Group>
yes (1)

$$$$
>  <Smiles Notation>
O=c1c(NCc2ccccn2)c(Nc2nc3ccccc3o2)c1=O

>  <Group>
no (0)

$$$$
>  <Smiles Notation>
CCCCCCNc1c(NCc2ccccn2)c(=O)c1=O

>  <Group>
yes (1)

$$$$
>  <Smiles Notation>
O=c1c(NCc2ccccn2)c(Nc2nc3cc([N+](=O)[O-])ccc3o2)c1=O

>  <Group>
no (0)

$$$$
>  <Smiles Notation>
O=c1c(NCc2ccccc2)c(NCc2ccccn2)c1=O

>  <Group>
no (0)

$$$$
>  <Smiles Notation>
Cc1ccc2nc(Nc3c(NCc4ccccn4)c(=O)c3=O)oc2c1

>  <Group>
yes (1)

$$$$
>  <Smiles Notation>
O=c1c(NCc2ccccn2)c(N2CCN(c3ccccc3)CC2)c1=O

>  <Group>
yes (1)

$$$$
